- experimental-system: SARS-CoV-2 Gamma Variant spike protein on pseudotyped lentivirus (SARS-CoV-2 Gamma variant)
- run-description: cell-based or functional assay
The entries below are paired with their reported Pseudovirus neutralization IC50.
# output: bare number, implied unit nM

{"columns": ["binder", "value"],
 "data": [
  ["PP1146 MBP-5HVZ-PAPA-R2d-D3-H6 (VHH, Form: Dimer) VHH: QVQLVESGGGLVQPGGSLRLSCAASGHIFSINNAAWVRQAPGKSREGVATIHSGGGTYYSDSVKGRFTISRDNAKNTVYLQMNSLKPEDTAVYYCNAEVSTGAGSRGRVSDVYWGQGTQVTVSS", 6.62],
  ["PP908 MBP-5HVZ-S2a-C4-H6 (VHH, Form: Dimer) VHH: QVQLVESGGGLVQPGGSLRLSCAASGFSESINATAWFRQAPGKQREGVAGLDGGGSDYYSDSVKGRFTISRDNAKNTVYLQMNSLKPEDTAVYYCAAQLTSSFRGYDFTPSNYDYWGQGTQVTVSS", 63.1],
  ["PP1107 MBP-5HVZ-PAPA-RN-22-H6 (VHH, Form: Dimer) VHH: QVQLVESGGGLVQPGGSLRLSCAASGSISEINLLHWFRQAPGKQREWVATMTSGGSTDYADSVKGRFTISRDNAKNTVYLQMNSLKPEDTAVYYCAADEFTKYGHGRYWGQGTQVTVSS", 0.649]
]}

Qu. // Input: PP934 MBP-5HVZ-S3a-H2-H6 (VHH, Form: Dimer) VHH: QVQLVESGGGLVQPGGSLRLSCAASGAAFSKNALHWFRQAPGKGREWVASITSGSGTQYMDSVKGRFTISRDNAKNTVYLQMNSLKPEDTAVYYCAALAYSGGYDYWGQGTQVTVSS . Output its Pseudovirus neutralization IC50 only.
Ans. 46300

Qu. // Input: PP1106 MBP-5HVZ-PAPA-RN-21-H6 (VHH, Form: Dimer) VHH: QVQLVESGGGLVQPGGSLRLSCAASGLQTSDNAMHWFRQAPGKNRELVAGLTSGTSRNYGDSVKGRFTISRDNAKNTVYLQMNSLKPEDTAVYYCAAFPDVGDASSIGFVYWGQGTQVTVSS . Output its Pseudovirus neutralization IC50 only.
Ans. 63.4

Qu. Give the measured Pseudovirus neutralization IC50 for PP1102 MBP-5HVZ-PAPA-RN-17-H6 (VHH, Form: Dimer) VHH: QVQLVESGGGLVQPGGSLRLSCAASGSMYSRAVMHWFRQAPGKEREGVASIGRTGDSYYADSVKGRFTISRDNAKNTVYLQMNSLKPEDTAVYYCAADNLDVVYGNRYWGQGTQVTVSS
Ans. 21.5

Qu. Please report the measured Pseudovirus neutralization IC50 for PP1143 MBP-5HVZ-PAPA-R2b-D5-H6 (VHH, Form: Dimer) VHH: QVQLVESGGGLVQPGGSLRLSCAASGYADEINMVHWYRQAPGKGREFVAAIASGGSTFYADSVKGRFTISRDNAKNTVYLQMNSLKPEDTAVYYCAAIPRPSLSYAHDYAYWGQGTQVTVSS
Ans. 3.13

Qu. Give a short answer stating reported Pseudovirus neutralization IC50 for PP1153 MBP-5HVZ-PAPA-R5d-D4-H6 (VHH, Form: Dimer) VHH: QVQLVESGGGLVQPGGSLRLSCAASGSDFTINAMHWFRQAPGKQREFVATITSTSSTAYRDSVKGRFTISRDNAKNTVYLQMNSLKPEDTAVYYCAAFAVRDADTAGWTARDYWGQGTQVTVSS .
Ans. 62.9
